- Tested on: SupT1 cells
- EXPERIMENT NOTES: Cytotoxicity in non-infected SupT1 cells (XTT reagent)
- Assay type: cell-based
READOUT NAME: CC50

Ask: What value of CC50 has been reported for the following molecule? CC(C)OC(=O)[C@H](C)N[P@](=O)(CO[C@H](C)Cn1cnc2c(N)ncnc21)Oc1ccccc1 [Compound 4f, tenofovir alafenamide hemifumarate]
Result: > 100 µM

====

- System: AD38 cell line
- EXPERIMENT NOTES: Cytotoxicity in AD38 cells (ATPLite)
- Type: cell-based, human
- STUDY CONDITIONS: 3 days
READOUT NAME: CC50 (nM)
# output: bare number, implied unit nM

Ask: Would you kindly share the measured CC50 for CC(C)OC(=O)[C@H](C)N[P@](=O)(CO[C@H](C)Cn1cnc2c(N)ncnc21)Oc1ccccc1 [Compound 4f, tenofovir alafenamide hemifumarate] ?
Result: 3000
